The reported numbers originate from the supplement of paper PMC10567573.

B1: C22orf31 (parent)
chain: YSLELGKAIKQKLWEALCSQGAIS

- Variants of: B1
- assay-procedure: protein stability index of a GFP-peptide fusion (GPS, HEK-293T) (PSI 1-6); higher = more stable;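 further: lentivirally expressed fusions sorted by FACS into six bins by GFP to DsRed ratio, PSI derived from sequencing read proportions per bin multiplied by bin number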
- test-settings: c terminus: a fixed tail appended
protein stability index values by entry

# item-sequence, protein stability index
data = [
    ("YSLELGKAIKQKLGEALCSQGAIS", 3.06),
    ("DSLELGKAIKQKLWEALCSQGAIS", 1.87),
    ("YSLLLGKAIKQKLWEALCSQGAIS", 2.69),
    ("YSLELGKAIKQKTWEALCSQGAIS", 1.88),
    ("YSLELGKAIKQKLWKALCSQGAIS", 2.73),
    ("YSLELTKAIKQKLWEALCSQGAIS", 1.86),
    ("YSLELGKPIKQKLWEALCSQGAIS", 1.84),
    ("KSLELGKAIKQKLWEALCSQGAIS", 3.44),
    ("YSDELGKAIKQKLWEALCSQGAIS", 1.38),
    ("YSLELGKAIKQKLWEALCSQGAIN", 2.63),
    ("YSLELWKAIKQKLWEALCSQGAIS", 3.02),
]
